- target.under.test: Aromatase (Homo sapiens, UniProt P11511)
- Sequence (P11511 whole entry): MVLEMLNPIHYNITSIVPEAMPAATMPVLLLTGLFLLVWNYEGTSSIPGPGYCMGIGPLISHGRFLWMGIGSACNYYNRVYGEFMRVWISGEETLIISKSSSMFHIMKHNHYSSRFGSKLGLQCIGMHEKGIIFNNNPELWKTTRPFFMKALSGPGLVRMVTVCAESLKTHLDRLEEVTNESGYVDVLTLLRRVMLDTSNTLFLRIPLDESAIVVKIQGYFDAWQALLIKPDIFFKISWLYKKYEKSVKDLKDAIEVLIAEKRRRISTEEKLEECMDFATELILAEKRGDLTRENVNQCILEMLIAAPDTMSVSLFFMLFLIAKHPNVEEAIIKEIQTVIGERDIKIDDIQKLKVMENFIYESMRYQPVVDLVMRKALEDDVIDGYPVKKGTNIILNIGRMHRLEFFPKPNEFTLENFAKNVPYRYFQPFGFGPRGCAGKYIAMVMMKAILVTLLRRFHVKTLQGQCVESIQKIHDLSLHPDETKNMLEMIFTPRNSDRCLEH
- experiment.notes: Percent inhibition of human placental Cytochrome P450 19A1 at 1:1 inhibitor: androstenedione (0.7 uM) ratio
Kindly return 1 if reported Inhibition is no lower than 80%; return 0 if it is lower.

compound | classification
CC12C=CC(=O)C(O)=C1CCC1C2CCC2(C)C(=O)CCC12 (stereo not given) | 0
CC12CCC3C(C=CC4=C(O)C(=O)CCC43C)C1CCC2=O (stereo not given) | 0
C[C@]12C=CC(=O)C=C1C=C[C@@H]1[C@@H]2CC[C@]2(C)C(=O)CC[C@@H]12 | 0
C[C@]12CCC(=O)C(O)=C1CC[C@@H]1[C@@H]2CC[C@]2(C)C(=O)CC[C@@H]12 | 1
